# System: ATP;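 also: ATP exposure 15 min at 22 °C before imaging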
# EXPERIMENT: switch fluorescence ratio, 500 uM ATP over buffer (Cy3 cluster intensity, sum of 5 cycles each) (fold (ratio)); higher = stronger signal-on switching upon ATP binding; sequences stand for … in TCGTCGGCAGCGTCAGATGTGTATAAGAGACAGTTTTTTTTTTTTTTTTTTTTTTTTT…TC
# CONDITION_LABEL: aptamer strand: ATP DNA aptamer (quencher-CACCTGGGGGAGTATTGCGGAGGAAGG + anchor), 100 nM annealed; ATP concentration: 500 uM
PROPERTY_MEASURED: switch fluorescence ratio

>>> print(df.to_string())
    sequence_string  study_target  endpoint_result
 0       ATATTGTCGT           ATP             1.01
 1       TATCGTACAT           ATP             1.11
 2       ACCACGGGCG           ATP             1.09
 3       TTTGTTTATA           ATP            0.999
 4       CCGGATGGAG           ATP             1.02
 5       TAGAAGTAGG           ATP             1.01
 6        AAAAGGGTA           ATP            0.957
 7       CGTGATCAGC           ATP             1.02
 8       CTGAATGGGG           ATP            0.971
 9       TTACGAGGGG           ATP            0.994
10       CAAGAAATTA           ATP                1

====

# Tested on: ATP;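 also: ATP exposure 15 min at 22 °C before imaging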
# EXPERIMENT: switch fluorescence ratio, 500 uM ATP over buffer (Cy3 cluster intensity, sum of 5 cycles each) (fold (ratio)); higher = stronger signal-on switching upon ATP binding; sequences stand for … in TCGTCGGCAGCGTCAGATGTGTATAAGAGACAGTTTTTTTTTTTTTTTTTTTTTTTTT…TC
# CONDITION_LABEL: aptamer strand: ATP DNA aptamer (quencher-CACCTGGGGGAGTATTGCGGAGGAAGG + anchor), 100 nM annealed; ATP concentration: 500 uM
# switch fluorescence ratio per record follows
PROPERTY_MEASURED: switch fluorescence ratio

    sequence_string  study_target          property_measured  endpoint_result
 0       GCTGAAGGCT           ATP  switch fluorescence ratio            0.962
 1       TGGATTTAGA           ATP  switch fluorescence ratio             1.02
 2       GGTTATTGAG           ATP  switch fluorescence ratio             0.98
 3       CAGAGGGGAG           ATP  switch fluorescence ratio             1.03
 4       ATAATATGTT           ATP  switch fluorescence ratio            0.991
 5       CGCGGTACGG           ATP  switch fluorescence ratio             1.47
 6       ACAAAATGTT           ATP  switch fluorescence ratio             1.02
 7       TTGCAAGTTT           ATP  switch fluorescence ratio            0.981
 8       AATTCGCGTT           ATP  switch fluorescence ratio            0.987
 9       GTCGATTAGT           ATP  switch fluorescence ratio            0.944
10       GGGTTATGCT           ATP  switch fluorescence ratio             0.99
11       GATGAGGGTG           ATP  switch fluorescence ratio             1.06
12       CGACACCGTG           ATP  switch fluorescence ratio             1.03
13       TATTGACTAG           ATP  switch fluorescence ratio             1.03
14       GCTGCGGGAT           ATP  switch fluorescence ratio             1.16
15       AGATGCCAGG           ATP  switch fluorescence ratio              1.1
16         TGGTTGGT           ATP  switch fluorescence ratio            0.975
17       GATTGCAGAT           ATP  switch fluorescence ratio             1.02
18       CTAAAATTAA           ATP  switch fluorescence ratio             1.01
19       ATGTTTTAGA           ATP  switch fluorescence ratio             0.95
20       GGCTCGGCAG           ATP  switch fluorescence ratio             1.05
21       ACTAGATTGA           ATP  switch fluorescence ratio             1.01
22       CGGTTGGCCA           ATP  switch fluorescence ratio                1
23       CGGTTTAGGT           ATP  switch fluorescence ratio            0.951
24       GGGGGCCGTT           ATP  switch fluorescence ratio            0.977
25       TCAAATTTTG           ATP  switch fluorescence ratio            0.999
26       GTTGCTAGGT           ATP  switch fluorescence ratio            0.998
27       CGGTGTGTCC           ATP  switch fluorescence ratio            0.972
28       AAAGCTGTAG           ATP  switch fluorescence ratio             1.02
29       GTTTGTATGG           ATP  switch fluorescence ratio             1.01
30       CGCAGGTGGG           ATP  switch fluorescence ratio             1.08
31       TCATCTGTTG           ATP  switch fluorescence ratio                1
32       TTTTCGGCTG           ATP  switch fluorescence ratio            0.943
33       GTAGGCAAGA           ATP  switch fluorescence ratio             1.03
34       CTTTCCTATG           ATP  switch fluorescence ratio             1.07
35       AGGGGGGCGG           ATP  switch fluorescence ratio            0.992
36       AACGGTCTGA           ATP  switch fluorescence ratio             1.01
37        ACAGTAGGA           ATP  switch fluorescence ratio             1.06
38       TGTAATGCCC           ATP  switch fluorescence ratio            0.991
39       GGTTGCGTTT           ATP  switch fluorescence ratio                1
40       TACGGGTGTG           ATP  switch fluorescence ratio             1.02
41       TTATTGATGG           ATP  switch fluorescence ratio             0.99
42       CCGTTCTTAC           ATP  switch fluorescence ratio             2.84
43       ATTTACCGGA           ATP  switch fluorescence ratio             1.04
44       AGCCATTTTG           ATP  switch fluorescence ratio             1.02
45       TGCGTAGAGG           ATP  switch fluorescence ratio             1.04
46       TTTTCTTAGG           ATP  switch fluorescence ratio             1.08
47       TAAGCGGCGG           ATP  switch fluorescence ratio                1
48       CCGTAGCGTT           ATP  switch fluorescence ratio             6.12
49       TTAATGATTT           ATP  switch fluorescence ratio                1
50       CCTAACCTCT           ATP  switch fluorescence ratio             1.01
51       CGTCGGAGGC           ATP  switch fluorescence ratio            0.986
52       GATTACTACC           ATP  switch fluorescence ratio             1.21
53       CTGATCAATG           ATP  switch fluorescence ratio              1.1
54       TGGGAGGAGT           ATP  switch fluorescence ratio                1
55       CTGGGTGGCG           ATP  switch fluorescence ratio             1.01
56       TTTTTGGCAA           ATP  switch fluorescence ratio             2.35
57       AAAATTTCAA           ATP  switch fluorescence ratio             1.01
58       TATCGGCAGC           ATP  switch fluorescence ratio             1.07
59       AGAAGCGGTT           ATP  switch fluorescence ratio             1.02
60       GGGTAAAGGA           ATP  switch fluorescence ratio            0.985
61       GTTCTCAGTG           ATP  switch fluorescence ratio             1.01
62       ACATAGTAAT           ATP  switch fluorescence ratio                1
63       TAATGGTTTG           ATP  switch fluorescence ratio             1.08
64       GAAGGGGATT           ATP  switch fluorescence ratio             1.02
65       GTTACTGGAC           ATP  switch fluorescence ratio             1.12
66       CGGTAGGAAT           ATP  switch fluorescence ratio             1.02
67       TAACTATTTT           ATP  switch fluorescence ratio             1.01
68       TAGGGTGCTT           ATP  switch fluorescence ratio             1.04
69       TGGTGGTTTT           ATP  switch fluorescence ratio             1.03
70       GGGCAGGGAG           ATP  switch fluorescence ratio                1
71       TGTAAGCTGG           ATP  switch fluorescence ratio             1.03
72       GTTGTTGTCG           ATP  switch fluorescence ratio            0.974
73       GGGATGGCAG           ATP  switch fluorescence ratio            0.982
74       CGGGCGGGAC           ATP  switch fluorescence ratio             1.59
75       GTATGCGGGG           ATP  switch fluorescence ratio            0.996
76       CGGGCCTTTT           ATP  switch fluorescence ratio                1
77       TTTATGTCGC           ATP  switch fluorescence ratio             1.01
78       TTAATTGCTT           ATP  switch fluorescence ratio             1.01
79       CTAAGATCGG           ATP  switch fluorescence ratio                1
80       AATGGCTGGT           ATP  switch fluorescence ratio            0.994
81       CGGGCGAGGA           ATP  switch fluorescence ratio            0.989
82       GAAGGGCGCG           ATP  switch fluorescence ratio             1.03
83       GCAGGGGTTA           ATP  switch fluorescence ratio             1.28
84       AATGTGCTAG           ATP  switch fluorescence ratio            0.995
85       GAGGCAAGGT           ATP  switch fluorescence ratio             1.65
